- tested on: human TOR (Homo sapiens)
- Construct: FLAG
- assay text: mTOR enzyme assay (DELFIA, His6-S6K substrate)
- Type: biochemical
- experimental setup: read-out: mTOR Kinase Avg. IC50
pIC50: −log10 of the molar value.
reported metric: pIC50

Solved cases below.
>  <chemical smiles>
COc1ccc2c(c1)c(/C=C1\Oc3cc(O)cc(O)c3C1=O)c(C(=O)N1CCCC1)n2CCN1CCN(C)CC1

>  <val>
6.94

$$$$
>  <chemical smiles>
Cn1cc(/C=C2\Oc3cc(O)cc(O)c3C2=O)c2c(-c3ccc(N4CCOCC4)nc3)cccc21

>  <val>
7.16

$$$$

[a] CC(C)Oc1ccc(-c2c(C=C3Oc4cc(O)cc(O)c4C3=O)c3ccccc3n2C)cc1
[b] COc1ccc2c(c1)c(/C=C1\Oc3ccc(NC(=O)Nc4ccc(C(=O)N5CCOCC5)cc4)cc3C1=O)c(C)n2CCN1CCN(C)CC1
I need your help: which of the pair a , b has higher pIC50? # reply format: chosen label
b
(b: 7.06, a: 6.17)

[P] COc1ccc2[nH]c(-c3c(C)nn(C)c3C)c(/C=C3\Oc4ccc(NC(=O)Nc5cccc(C(=O)N(C)CCN(C)C)c5)cc4C3=O)c2c1
[Q] O=C1C(=Cc2c[nH]c3cccc(-c4ccccc4)c23)Oc2cc(O)cc(O)c21
Form field 'greater pIC50' accepts P or Q ; which applies? Respond using the label that marks the chosen record.
P
(P: 7.07, Q: 5.97)

---

- tested on: human TOR (Homo sapiens, UniProt P42345)
- Construct: FLAG
- assay text: mTOR enzyme assay (DELFIA, His6-S6K substrate)
- Format: biochemical
- experimental setup: read-out: mTOR Kinase Avg. IC50
pIC50: −log10 of the molar value.
reported metric: pIC50

The following compounds have reported results that may help.
>  <compound>
Cn1cc(/C=C2\Oc3cc(O)cc(O)c3C2=O)c2c(-c3cccc(F)c3)cccc21

>  <pIC50>
6.98

$$$$
>  <compound>
COc1cc(O)cc2c1C(=O)/C(=C/c1c(-c3ccccc3)n(C)c3ccccc13)O2

>  <pIC50>
5.69

$$$$
>  <compound>
COc1ccc2c(c1)c(C=C1Oc3cc(O)cc(O)c3C1=O)cn2CCCN1CCN(CCO)CC1

>  <pIC50>
5.78

$$$$
>  <compound>
CC(C)NC(=O)c1ccc(-c2cccc3c2c(/C=C2\Oc4cc(O)cc(O)c4C2=O)cn3C)cc1

>  <pIC50>
7.02

$$$$
>  <compound>
COc1ccc2c(c1)c(/C=C1\Oc3cc(O)ccc3C1=O)c(C)n2CCCN1CCCC1C (centres unmarked)

>  <pIC50>
4.90

$$$$

[1] CNC(=O)Nc1ccc2c(c1)C(=O)/C(=C/c1c(-c3c(C)nn(CCN(C)C)c3C)[nH]c3ccc(OC)cc13)O2
[2] COC(=O)c1cccc2c1c(C=C1Oc3cc(O)cc(O)c3C1=O)cn2C
[3] Cc1c(C=C2Oc3cc(O)cc(O)c3C2=O)c2cc(Cl)ccc2n1C
[4] Cc1[nH]c2c(Br)cccc2c1C=C1Oc2cc(O)cc(O)c2C1=O
[5] CC(=O)Nc1ccc2[nH]c(C)c(C=C3Oc4cc(O)cc(O)c4C3=O)c2c1
Order the items by recorded pIC50; the first position goes to the largest value. Output spec: a listing of the labels in the requested order.
1, 2, 3, 4, 5
